study-system: T1, monkey IL-25 expressed with a C-terminal myc-myc-hexahistidine tag (M. fascicularis (cynomolgus monkey))
T1 construct: also called monkey IL-25-MMH; MfIL-25-MMH
T1 chain: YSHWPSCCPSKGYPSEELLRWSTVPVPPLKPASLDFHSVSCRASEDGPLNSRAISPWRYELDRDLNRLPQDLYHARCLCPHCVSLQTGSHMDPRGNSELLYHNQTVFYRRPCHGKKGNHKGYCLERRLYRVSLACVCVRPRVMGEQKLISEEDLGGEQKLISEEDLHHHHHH
assay-procedure: SPR Biacore, captured mAb, 25°C;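 also: Real-time surface plasmon resonance on a Biacore 4000, with IL-25-MMH binding to purified anti-IL-25 antibodies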
# 100 nM Monkey IL-25-MMH Bound (RU) values compiled below
observed-property: 100 nM Monkey IL-25-MMH Bound (RU)

# binder, reported-value
rows = [
    ("H4H10863P (antibody, human IgG4, V domains shown) VH: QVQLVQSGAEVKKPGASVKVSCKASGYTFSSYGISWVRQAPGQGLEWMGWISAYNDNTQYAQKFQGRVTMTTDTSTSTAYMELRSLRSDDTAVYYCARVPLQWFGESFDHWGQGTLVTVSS VL: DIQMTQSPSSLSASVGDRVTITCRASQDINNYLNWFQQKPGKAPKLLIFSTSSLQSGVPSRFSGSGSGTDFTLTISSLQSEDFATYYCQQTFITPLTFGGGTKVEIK", 39),
    ("H4H10897P (antibody, human IgG4, V domains shown) VH: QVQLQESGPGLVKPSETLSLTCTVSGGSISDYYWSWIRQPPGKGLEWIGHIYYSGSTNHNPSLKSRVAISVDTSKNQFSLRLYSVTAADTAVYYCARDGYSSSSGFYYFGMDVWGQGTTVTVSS VL: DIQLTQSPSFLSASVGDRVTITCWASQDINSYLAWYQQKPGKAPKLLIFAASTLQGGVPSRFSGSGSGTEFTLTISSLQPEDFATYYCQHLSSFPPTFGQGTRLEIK", 42),
    ("H4H10861P (antibody, human IgG4, V domains shown) VH: QVQLQESGPGLVKPSETLSLTCTVSGASISNYYWSWIRQPPGKGLEWIGYIFYSGNTNYNPSLKSRVTISVDTSKNQFSLKLSSVTAADTAVYYCARVRFSDYELNWFDPWGQGTLVTVSS VL: DIVMTQSPDSLAVFLGERATINCRSSQSVFLGSNNKNYLAWYQQKPGQPPKLLIYWASSRESGVPDRFSGSGSGTDFTLTINSLQAEDVAVYYCQQYFITPLTFGGGTKVEIK", 48),
    ("H4H10901P (antibody, human IgG4, V domains shown) VH: QLQLQESGPGLVRPSETLSLTCSVSSGSIRSSNYYWGWIRQPPGKGLEWIGNIYYSGNTFYNPSLKGRVTISVDTSKNQFSLKLSSVTATDTAVYYCARQGYSDYELNWFDPWGQGTLVTVSS VL: DIVMTQSPDSLVLSLGERATFNCKSSQSVLDSSNNKNYLAWYQQKPGQPPKLLIYWASTRESGVPDRFSGSGSGTDFSLTISSLQAEDVALYYCQQFYNSPWTFGQGTKVEIK", 64),
]
